# assay.summary: Inhibition of caspase-like activity of 20S proteasome in rabbit 20S proteasome pre-incubated for 10 mins before Suc-Leu-Leu-Val-Tyr-AMC substrate addition and measured after 2 hrs by fluorescence assay
# Parameters: species or system Oryctolagus cuniculus
property: IC50 (nM)
Give the value in nM but do not write nM after it.

Some compounds with recorded IC50:
Cc1cc(C)cc(/N=N/c2cccc(C(=O)N[C@H](C(=O)N[C@@H](CC(C)C)B3OC4C[C@@H]5C[C@@H](C5(C)C)[C@]4(C)O3)[C@@H](C)O)c2)c1 (stereo not given in full): 1620
Cc1cc(C)cc(/N=N\c2cccc(C(=O)N[C@H](C(=O)N[C@@H](CC(C)C)B3OC4C[C@@H]5C[C@@H](C5(C)C)[C@]4(C)O3)[C@@H](C)O)c2)c1 (stereo not given in full): 1630
CC(C)C[C@H](NC(=O)[C@H](Cc1ccc(/N=N/c2ccc(-c3ccccc3)cc2)cc1)NC(=O)OC(C)(C)C)B1OC2C[C@@H]3C[C@@H](C3(C)C)[C@]2(C)O1 (stereo not given in full): 460
Cc1cc(C)cc(/N=N\c2ccc(C[C@H](NC(=O)OC(C)(C)C)C(=O)N[C@@H](CC(C)C)B3OC4C[C@@H]5C[C@@H](C5(C)C)[C@]4(C)O3)cc2)c1 (stereo not given in full): 214

Summary for this compound, CC(C)C[C@H](NC(=O)[C@H](Cc1ccc(/N=N/c2ccccc2)cc1)NC(=O)OC(C)(C)C)B1OC2C[C@@H]3C[C@@H](C3(C)C)[C@]2(C)O1 (stereo not given in full) : IC50 is 107
